Molecular target: Human CB2R (Cannabinoid receptor 2) (Homo sapiens, UniProt P34972)
Sequence (P34972 whole entry): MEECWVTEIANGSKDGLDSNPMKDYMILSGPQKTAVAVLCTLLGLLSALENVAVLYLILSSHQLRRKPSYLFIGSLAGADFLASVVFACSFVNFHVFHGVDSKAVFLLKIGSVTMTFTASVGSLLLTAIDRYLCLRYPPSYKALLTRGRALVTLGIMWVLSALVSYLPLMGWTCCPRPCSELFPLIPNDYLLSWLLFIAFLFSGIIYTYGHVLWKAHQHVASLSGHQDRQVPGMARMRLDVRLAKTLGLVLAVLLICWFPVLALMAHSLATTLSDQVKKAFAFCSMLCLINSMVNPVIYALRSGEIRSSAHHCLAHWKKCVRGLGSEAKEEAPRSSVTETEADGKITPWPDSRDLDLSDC
Assay: CB-2 in vitro cAMP (HTRF) assay
Conditions: HEK cells, cAMP HTRF, 250 nM forskolin; mean where tested more than once; read-out: CB2 HEK_cAMP EC50
Text: CB1 and CB2 receptors are Gi-coupled GPCR. Activation of CB1 and CB2 receptors results in a decrease in cAMP production. An inverse agonist of the CB1 or CB2 receptor results in the opposite effect, an increase of cAMP production. The principle of this assay is based on HTRF® technology (Homogeneous Time-Resolved Fluorescence). […] The tracer binding is quantified by a Mab anti-cAMP labeled with Eu3+TBP-NHS Cryptate (supplied as part of the assay kit). […]
observable: EC50

`O=S(=O)(c1ccc(C(F)(F)F)cc1)N1CCC(n2c(C3CC3)nc3ccc(C(c4ccc(Cl)cc4)c4ccc(Cl)cc4)cc32)CC1` has a reported EC50 of > 10 µM

`COc1ccc(S(=O)(=O)N2CCC(n3c(C4CC4)nc4ccc(C(c5ccc(Cl)cc5)c5ccc(Cl)cc5)cc43)CC2)cc1F` has a reported EC50 of > 10 µM

`NC(=O)c1ccc(CN2CCC(n3c(C4CC4)nc4ccc(C(c5ccc(Cl)cc5)c5ccc(Cl)cc5)cc43)CC2)s1` has a reported EC50 of 7.8 µM

* * *

target: Human CB2R (Cannabinoid receptor 2) (Homo sapiens, UniProt P34972); test: CB-2 in vitro cAMP (HTRF) assay; settings: HEK cells, cAMP HTRF, 250 nM forskolin; mean where tested more than once; read-out: CB2 HEK_cAMP EC50
pEC50: −log10 of the molar value.
observable: pEC50

Clc1ccc(C(c2ccc(Cl)cc2)c2ccc3nc(C4CC4)n(CCc4ccc(Br)cc4)c3c2)cc1 [Example 27] has a reported pEC50 of < 5.00

O=S(=O)(N1CCC(n2c(C3CCC3)nc3ccc(C(O)(c4ccc(Cl)cc4)c4ccc(Cl)cc4)cc32)CC1)C(F)(F)F [Example 319] has a reported pEC50 of < 5.00

FC(F)(F)c1ccccc1CN1CCC(n2c(C3CC3)nc3ccc(C(c4ccc(Cl)cc4)c4ccc(Cl)cc4)cc32)CC1 [Example 84] has a reported pEC50 of < 5.00

* * *

target: Human CB2R (Cannabinoid receptor 2) (Homo sapiens); experiment: CB-2 in vitro cAMP (HTRF) assay; details: HEK cells, cAMP HTRF, 250 nM forskolin; mean where tested more than once; read-out: CB2 HEK_cAMP EC50
Please respond with reported EC50 for every item in the list.

CCc1csc(C(c2ccc(Cl)cc2)c2ccc3ncn(Cc4ccc(Cl)cc4)c3c2)n1 (stereo not shown) has a reported EC50 of > 10 µM

`Oc1cccc(CN2CCC(n3c(C4CC4)nc4ccc(C(c5ccc(Cl)cc5)c5ccc(Cl)cc5)cc43)CC2)c1` has a reported EC50 of > 10 µM

`CCc1nc2ccc(C(C(=O)O)(c3ccc(Cl)cc3)c3ccc(Cl)cc3)cc2n1C1CCN(S(=O)(=O)C(F)(F)F)CC1` has a reported EC50 of > 10 µM

CCOC(=O)c1nc2ccc(C(c3ccc(Cl)cc3)c3nccs3)cc2n1C1CCN(S(=O)(=O)C(F)(F)F)CC1 (stereo not shown) has a reported EC50 of > 10 µM

`Oc1cccc(N[C@H]2CC[C@H](n3c(C4CC4)nc4ccc(C(c5ccc(Cl)cc5)c5ccc(Cl)cc5)cc43)CC2)c1` has a reported EC50 of > 10 µM

O=S(=O)(N1CCC(n2c(C3CC3)nc3ccc(C(c4ccc(Cl)cc4)c4nccs4)cc32)CC1)C(F)(F)F (stereo not shown) has a reported EC50 of > 10 µM

`COc1ccc(S(=O)(=O)N2CCC(n3c(C4CC4)nc4ccc(C(c5ccc(Cl)cc5)c5ccc(Cl)cc5)cc43)CC2)cc1` has a reported EC50 of > 10 µM

`O=S(=O)(N1CCC(Cn2c(C3CCC3)nc3ccc(C(c4ccc(Cl)cc4)c4ccc(Cl)cc4)cc32)CC1)C(F)(F)F` has a reported EC50 of > 10 µM

`O=C(O)c1ccc(C(=O)N2CCC(n3c(C4CC4)nc4ccc(C(c5ccc(Cl)cc5)c5ccc(Cl)cc5)cc43)CC2)cn1` has a reported EC50 of > 10 µM

Clc1ccc(C(c2ccc3nc(-c4ccsc4)n(-c4cccc(Cl)c4)c3c2)c2nccs2)cc1 (stereo not shown) has a reported EC50 of > 10 µM

`COc1ccc(Cn2c(C3CC3)nc3ccc(C(c4ccc(Cl)cc4)c4ccc(Cl)cc4)cc32)cc1` has a reported EC50 of 7.9 µM

`O=C(O)c1ccc(S(=O)(=O)N[C@H]2CC[C@@H](n3c(C4CC4)nc4ccc(C(c5ccc(Cl)cc5)c5ccc(Cl)cc5)cc43)CC2)cc1` has a reported EC50 of 8.7 µM

CCOC(=O)N1CCC(n2c(Cl)nc3ccc(C(c4ccc(Cl)cc4)c4nccs4)cc32)CC1 (stereo not shown) has a reported EC50 of > 10 µM

`COc1cccc(-n2c(C3CC3)nc3ccc(C(c4ccc(Cl)cc4)c4ccc(Cl)cc4)cc32)c1` has a reported EC50 of > 10 µM

`O=C(O)c1cccc(CN2CCC(n3c(C4CC4)nc4ccc(C(c5ccc(Cl)cc5)c5ccc(Cl)cc5)cc43)CC2)c1Cl` has a reported EC50 of 9.4 µM

`O=C(O)c1ccc(S(=O)(=O)N2CCC(n3c(C4CC4)nc4ccc(C(c5ccc(Cl)cc5)c5ccc(Cl)cc5)cc43)CC2)cc1Cl` has a reported EC50 of 2.42 µM

`O=S(=O)(N1CCC(n2c(CO)nc3ccc(C(O)(c4ccc(Cl)cc4)c4ccc(Cl)cc4)cc32)CC1)C(F)(F)F` has a reported EC50 of > 10 µM

`Clc1ccc(C(c2ccc(Cl)cc2)c2ccc3nc(C4CC4)n(CCc4cccc(Br)c4)c3c2)cc1` has a reported EC50 of > 10 µM

CC(C)(C)OC(=O)N1CC(c2nc3ccc(C(c4ccc(Cl)cc4)c4nccs4)cc3n2CCc2cccc(Cl)c2)C1 (stereo not shown) has a reported EC50 of > 10 µM

* * *

molecular target: Human CB1R (Cannabinoid receptor 1) (Homo sapiens, UniProt P21554); test: CB-1 in vitro cAMP (HTRF) assay; type: cell-based; conditions: HEK cells, cAMP HTRF, 250 nM forskolin; mean where tested more than once; read-out: CB1 HEK_cAMP EC50
Sequence (P21554 whole entry): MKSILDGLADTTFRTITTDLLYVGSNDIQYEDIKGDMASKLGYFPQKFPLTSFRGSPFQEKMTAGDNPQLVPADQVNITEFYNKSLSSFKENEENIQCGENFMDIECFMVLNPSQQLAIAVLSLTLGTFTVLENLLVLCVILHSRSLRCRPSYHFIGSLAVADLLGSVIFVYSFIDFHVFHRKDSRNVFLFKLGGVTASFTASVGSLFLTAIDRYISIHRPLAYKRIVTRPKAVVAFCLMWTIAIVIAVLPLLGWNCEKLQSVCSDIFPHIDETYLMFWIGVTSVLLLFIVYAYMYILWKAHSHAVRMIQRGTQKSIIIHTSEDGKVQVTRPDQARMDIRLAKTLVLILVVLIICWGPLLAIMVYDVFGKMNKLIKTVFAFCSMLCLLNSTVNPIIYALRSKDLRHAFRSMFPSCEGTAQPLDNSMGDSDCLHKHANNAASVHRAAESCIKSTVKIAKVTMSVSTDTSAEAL
Please respond with reported EC50 for every item in the list.
Give the number; nM is assumed, so skip it.

`O=C(O)c1ccc(-c2cccc(S(=O)(=O)NCCCn3c(C4CC4)nc4ccc(C(c5ccc(Cl)cc5)c5ccc(Cl)cc5)cc43)c2)cc1` has a reported EC50 of 33.9

O=C(O)c1cccc(CN2CCC(n3c(C4CC4)nc4ccc(C(c5ccc(F)cc5)c5ccc(Cl)cc5)cc43)CC2)c1 (stereo not shown) has a reported EC50 of 16.2

`FC(F)(F)c1ccccc1CN1CCC(n2c(C3CC3)nc3ccc(C(c4ccc(Cl)cc4)c4ccc(Cl)cc4)cc32)CC1` has a reported EC50 of 67.7

* * *

target: Human CB1R (Cannabinoid receptor 1) (Homo sapiens, UniProt P21554); test: CB-1 in vitro cAMP (HTRF) assay; format: cell-based; conditions: HEK cells, cAMP HTRF, 250 nM forskolin; mean where tested more than once; read-out: CB1 HEK_cAMP EC50
observable: EC50 (nM)
Give the number; nM is assumed, so skip it.

Assay Human CB1R (Cannabinoid receptor 1) (Homo sapiens, UniProt P21554), sample O=S(=O)(N1CCC(Cn2c(C3CC3)nc3ccc(C(c4ccc(Cl)cc4)c4ccc(Cl)cc4)cc32)CC1)C(F)(F)F [Example 316] , EC50 read: 2.8

Assay Human CB1R (Cannabinoid receptor 1) (Homo sapiens, UniProt P21554), sample COc1ccccc1S(=O)(=O)N1CCC(n2c(C3CC3)nc3ccc(C(c4ccc(Cl)cc4)c4ccc(Cl)cc4)cc32)CC1 [Example 275] , EC50 read: 1.6

* * *

target: Human CB2R (Cannabinoid receptor 2) (Homo sapiens); test: CB-2 in vitro cAMP (HTRF) assay; conditions: HEK cells, cAMP HTRF, 250 nM forskolin; mean where tested more than once; read-out: CB2 HEK_cAMP EC50
pEC50: −log10 of the molar value.
observable: pEC50

FC(F)(F)c1csc(C(c2ccc(Cl)cc2)c2ccc3ncn(Cc4ccc(Cl)cc4)c3c2)n1 (centres unmarked) [Example 462] has a reported pEC50 of < 5.18

O=S(=O)(c1ccc(OC(F)(F)F)cc1)N1CCC(n2c(C3CC3)nc3ccc(C(c4ccc(Cl)cc4)c4ccc(Cl)cc4)cc32)CC1 [Example 279] has a reported pEC50 of < 5.00

Cc1cc(C(N)=O)sc1S(=O)(=O)N1CCC(n2c(C3CC3)nc3ccc(C(c4ccc(Cl)cc4)c4ccc(Cl)cc4)cc32)CC1 [Example 215] has a reported pEC50 of < 5.00

Cc1ccc(S(=O)(=O)N2CCC(n3c(C4CC4)nc4ccc(C(c5ccc(Cl)cc5)c5ccc(Cl)cc5)cc43)CC2)cc1C(=O)O [Example 188] has a reported pEC50 of < 5.00

O=S(=O)(N1CCC(Cn2c(C3CC3)nc3ccc(C(O)(c4ccc(Cl)cc4)c4ccc(Cl)cc4)cc32)CC1)C(F)(F)F [Example 294] has a reported pEC50 of < 5.00

FC(F)(F)Cc1nc2ccc(C(c3ccc(Cl)cc3)c3nccs3)cc2n1CCc1cccc(Cl)c1 (centres unmarked) [Example 340] has a reported pEC50 of < 5.00

CC(C)(C)OC(=O)N1CCC(n2c(C3CC3)nc3ccc(C(O)(c4ccc(Cl)cc4)c4ccc(Cl)cc4)cc32)CC1 [Example 41] has a reported pEC50 of < 4.38

O=S(=O)(N1CCC(n2c(C3CC3)nc3c(O)cc(C(c4ccc(Cl)cc4)c4ccc(Cl)cc4)cc32)CC1)C(F)(F)F [Example 202] has a reported pEC50 of < 5.00

CCOC(=O)N1CCC(n2c(-c3ccc(Cl)cc3)nc3ccc(C(c4ccc(Cl)cc4)c4nccs4)cc32)CC1 (centres unmarked) [Example 418] has a reported pEC50 of < 5.00

O=S(=O)(c1ccc(F)cc1)N1CCC(n2c(C3CC3)nc3ccc(C(c4ccc(Cl)cc4)c4ccc(Cl)cc4)cc32)CC1 [Example 282] has a reported pEC50 of < 5.00

NC(=O)c1ccc(S(=O)(=O)N2CCC(n3c(C4CC4)nc4ccc(C(c5ccc(Cl)cc5)c5ccc(Cl)cc5)cc43)CC2)cn1 [Example 238] has a reported pEC50 of < 5.00

CC(C)Cc1nc2ccc(C(c3ccc(Cl)cc3)c3nccs3)cc2n1-c1cccc(Cl)c1 (centres unmarked) [Example 433] has a reported pEC50 of < 5.00

Clc1ccc(Cn2c(-c3ccc(Cl)cc3)nc3ccc(C(c4ccc(Cl)cc4)c4nccs4)cc32)cc1 (centres unmarked) [Example 464] has a reported pEC50 of < 5.14

CC(c1cccc(O)c1)N1CCC(n2c(C3CC3)nc3ccc(C(c4ccc(Cl)cc4)c4ccc(Cl)cc4)cc32)CC1 (centres unmarked) [Example 56] has a reported pEC50 of < 5.00
